Sourced from ChEMBL document CHEMBL1142688

Experimental protocol: Half life after administration of 20 mg/kg in dog
Format: ADME, organism-based, Canis lupus familiaris
Design: dose 20 mg/kg
Test conditions: in vivo

{"columns": ["Input smiles", "half-life [h]"],
 "data": [
  ["CN(C)C(=O)Cn1c(-c2ccccc2)c(C2CCCCC2)c2ccc(C(=O)O)cc21", 4.8]
]}
